Molecular target: T1, human RXFP1 (human, UniProt Q9HBX9 1-757)
T1 sequence (looked up): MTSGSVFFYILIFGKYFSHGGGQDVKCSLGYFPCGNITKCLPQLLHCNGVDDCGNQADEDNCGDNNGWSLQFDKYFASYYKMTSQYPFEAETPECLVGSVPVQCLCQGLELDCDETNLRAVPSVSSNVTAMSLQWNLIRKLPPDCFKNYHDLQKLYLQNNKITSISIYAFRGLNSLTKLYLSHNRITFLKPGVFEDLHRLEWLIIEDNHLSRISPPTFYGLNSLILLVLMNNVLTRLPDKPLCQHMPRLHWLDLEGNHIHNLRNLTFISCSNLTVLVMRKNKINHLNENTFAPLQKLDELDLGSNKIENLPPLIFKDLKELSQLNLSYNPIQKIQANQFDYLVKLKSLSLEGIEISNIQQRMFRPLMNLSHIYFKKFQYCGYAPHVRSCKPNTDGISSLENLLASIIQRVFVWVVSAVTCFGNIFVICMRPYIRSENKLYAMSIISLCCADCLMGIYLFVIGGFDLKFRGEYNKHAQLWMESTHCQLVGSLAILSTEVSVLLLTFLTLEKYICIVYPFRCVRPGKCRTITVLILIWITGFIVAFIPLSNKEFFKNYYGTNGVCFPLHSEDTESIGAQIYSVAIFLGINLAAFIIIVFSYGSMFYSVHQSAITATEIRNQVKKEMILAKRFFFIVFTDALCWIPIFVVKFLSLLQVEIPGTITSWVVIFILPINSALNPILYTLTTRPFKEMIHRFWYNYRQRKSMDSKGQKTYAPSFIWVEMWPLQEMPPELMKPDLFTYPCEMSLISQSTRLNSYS
Experiment: cell-based or functional assay
Recorded Potency (cAMP, transient hRXFP1 in HEK293) values for a group of binders are listed next.
Your answer is read as nM, so omit the unit and give the number.

See these solved cases before continuing.
# BINDER, RESULT VALUE
measured = [
    ("SEQ ID NO: 325 (Fc fusion) DKTHTCPPCPAPEAAGGPSVFLFPPKPKDTLMISRTPEVTCVVVDVSHEDPEVKFNWYVDGVEVHNAKTKPREEQYNSTYRVVSVLTVLHQDWLNGKEYKCKVSNKALAAPIEKTISKAKGQPREPQVYTLPPSRDELTKNQVSLTCLVKGFYPSDIAVEWESNGQPENNYKTTPPVLDSDGSFFLYSKLTVDKSRWQQGNVFSCSVLHEALHSHYTQKSLSLSPGGGSDSWQEEVIKLCGRELVRAQIAICGKSTGGGEEGGGEEGGGRQLYSALANKCCHVGCTKRSLAQFC", 23.4),
    ("SEQ ID NO: 106 (Fc fusion) DKTHTCPPCPAPEAAGGPSVFLFPPKPKDTLMISRTPEVTCVVVDVSHEDPEVKFNWYVDGVEVHNAKTKPREEQYNSTYRVVSVLTVLHQDWLNGKEYKCKVSNKALAAPIEKTISKAKGQPREPQVYTLPPSRDELTKNQVSLTCLVKGFYPSDIAVEWESNGQPENNYKTTPPVLDSDGSFFLYSKLTVDKSRWQQGNVFSCSVLHEALHSHYTQKSLSLSPGEGGSDSWQEEVIKLCGRELVRAQIAICGKSTASDAAGANADAGARQLYSALANKCCHVGCTKQSLAQFC", 14),
    ("SEQ ID NO: 92 (Fc fusion) DKTHTCPPCPAPEAAGGPSVFLFPPKPKDTLMISRTPEVTCVVVDVSHEDPEVKFNWYVDGVEVHNAKTKPREEQYNSTYRVVSVLTVLHQDWLNGKEYKCKVSNKALAAPIEKTISKAKGQPREPQVYTLPPSRDELTKNQVSLTCLVKGFYPSDIAVEWESNGQPENNYKTTPPVLDSDGSFFLYSKLTVDKSRWQQGNVFSCSVLHEALHSHYTQKSLSLSPGEGGSDSWQEEVIKLCGRELVRAQIAICGKSTASDAAGANADAGARQLYSALANKCCHVGCTKRSLAQFC", 4.3),
]

Could you now consider this next binder?
// sample SEQ ID NO: 91 (Fc fusion) DKTHTCPPCPAPEAAGGPSVFLFPPKPKDTLMISRTPEVTCVVVDVSHEDPEVKFNWYVDGVEVHNAKTKPREEQYNSTYRVVSVLTVLHQDWLNGKEYKCKVSNKALAAPIEKTISKAKGQPREPQVYTLPPSRDELTKNQVSLTCLVKGFYPSDIAVEWESNGQPENNYKTTPPVLDSDGSFFLYSKLTVDKSRWQQGNVFSCSVLHEALHSHYTQKSLSLSPGEGGSDSWQEEVIKLCGRELVRAQIAICGKSTASDAAGADANAGARQLYSALANKCCHVGCTKRSLAQFC , its Potency (cAMP, transient hRXFP1 in HEK293) was 3.9
